assay: physchem
assay-endpoint: solubility kinetic (µg/mL)

O=C(Nc1ccccc1C(=O)Nc1ccccc1C(=O)NCc1ccco1)c1ccco1 [Compound 1]    1.6

* * *

test: rat microsome stability; settings: microsomes
assay-endpoint: half-life (min)

CC(C)Oc1ccccc1C(=O)Nc1ccccc1C(=O)Nc1cccc(S(=O)(=O)C(F)(F)F)c1 [Compound 65]    28.2

* * *

assay: Pion's μSOL assay for kinetic solubility; type: physicochemical
Below, each of the molecules is paired with its reported solubility value.
assay-endpoint: solubility

CCOc1ccccc1C(=O)Nc1ncccc1C(=O)Nc1cccc(S(=O)(=O)C(F)(F)F)c1    < 1 µM
CCOc1ccccc1C(=O)Nc1cnccc1C(=O)Nc1cccc(S(=O)(=O)C(F)(F)F)c1    < 1 µM
